Entry source: PubChem BioAssay AID463173

System: DeltatarO mutant
Assay: S. aureus survival, RN4220 and DeltatarO strains – OD600, teichoic acid synthesis inhibitors, primary screen (AID 463173)
Conditions: S. aureus RN4220 wild type/DeltatarO growth, OD600, 18 h, screened at 18.75 µg/mL (by protocol)
About 4,300 (8.3%) of roughly 52,000 compounds were called active. No stated cut-off is given here; in the data, active means survival mostly below about 52% (no sharp cut-off); inactive means mostly above about 56%. The full list was thinned out, with actives kept by preference.
The reply should be one of these categories: t = active, f = inactive

Below, 5 compounds whose answers are already recorded.
COMPOUND: CCOc1ccccc1NC(=O)CN1C(=O)C(=O)c2ccccc21
GROUP_LABEL: f

COMPOUND: COc1ccc(NC(=O)CCn2c(=O)c3cccn3c3ccccc32)c(OC)c1
GROUP_LABEL: t

COMPOUND: COc1ccc(NC(=O)CCCn2c(=O)c3cccn3c3ccccc32)c(OC)c1
GROUP_LABEL: t

COMPOUND: c1ccc(N2CCN(c3ncnc4c3nc3n4CCCCC3)CC2)cc1
GROUP_LABEL: f

COMPOUND: COc1cccc(N2CCN(c3ncnc4c3nc3n4CCCCC3)CC2)c1
GROUP_LABEL: t

Next up:
Field: outcome | Entry: COc1ccccc1NC(=O)Cn1c(=O)n(-c2ccccc2Cl)c(=O)c2sc3ccccc3c21
f
